Measured values drawn from patent EP0183439B1 for this set.

Each entry below carries its reported LD₂₀.
# ASSAY_PROTOCOL: LD20 in the P388/0 test (toxicity in mice)
# Format: in vivo
# ASSAY_SETUP: intraperitoneally on days 1, 5 and 9
Structures can show the parent of a compound that is named as a salt.
Your answer should be a plain number; it is taken to be in mg/kg.

CC(CO)(CO)NCc1ccc2oc3ccccc3c2c1.Cl: 225
CC(CO)(CO)NCc1cc2ccsc2c2ccccc12 [Example 10C]: 115
CC(CO)(CO)NCc1cccc2oc3ccccc3c12 [Example 4B, hydrochloride]: 200

Return reported LD₂₀; argument: CC(CO)(CO)NCc1ccc2sc3ccccc3c2c1.Cl
200

Return reported LD₂₀; argument: CC(CO)(CO)NCc1cccc2c1sc1ccccc12.Cl
200
